Reference source for all entries: the supplement of paper PMC8773631

# System: NCC-MFS5-C1
# method: cell viability relative to DMSO control; higher = less growth inhibition
# recorded_conditions: 10 µM; treatment time: 3 days
Where a name gives a salt, the structure may show the parent alone.
Answer each item with its documented cell viability.
Answers are plain numbers, in %.

In the examples that follow, each entry is paired with its recorded cell viability.
molecule	quantity	reported
CCN(CC)CCNC(=O)c1c(C)[nH]c(/C=C2\C(=O)Nc3ccc(F)cc32)c1C [Sunitinib Malate]	cell viability	7.73
CO[C@H]1C[C@@H]2CC[C@@H](C)[C@@](O)(O2)C(=O)C(=O)N2CCCC[C@H]2C(=O)O[C@H]([C@H](C)C[C@@H]2CC[C@@H](OC(=O)C(C)(CO)CO)[C@H](OC)C2)CC(=O)[C@H](C)/C=C(\C)[C@@H](O)[C@@H](OC)C(=O)[C@H](C)C[C@H](C)/C=C/C=C/C=C/1C	cell viability	52.2
O=S(=O)(O)CCS	cell viability	77
C#Cc1cccc(Nc2ncnc3cc(OCCOC)c(OCCOC)cc23)c1	cell viability	81.7
COc1c2occc2cc2ccc(=O)oc12	cell viability	116

For each of the molecules below, state cell viability.
1. Cc1ccc(NC(=O)c2ccc(CN3CC[C@H](N(C)C)C3)c(C(F)(F)F)c2)cc1Nc1nccc(-c2cncnc2)n1
2. C=CC(=O)Nc1cc2c(Nc3ccc(F)c(Cl)c3)ncnc2cc1OCCCN1CCOCC1
3. COc1cc2/c(=N/c3ccc(Br)cc3F)nc[nH]c2cc1OCC1CCN(C)CC1 [Vandetanib (ZD6474)]
4. COC(=O)c1ccc2c(C(=Nc3ccc(N(C)C(=O)CN4CCN(C)CC4)cc3)c3ccccc3)c(O)[nH]c2c1
5. CNNCc1ccc(C(=O)NC(C)C)cc1 [Procarbazine HCl]
6. CO[C@H]1O[C@@H]2O[C@@]3(C)CC[C@H]4[C@H](C)CC[C@@H]([C@H]1C)[C@@]24OO3
7. Nc1nc2[nH]cc(CCc3ccc(C(=O)N[C@@H](CCC(=O)O)C(=O)O)cc3)c2c(=O)[nH]1 [Pemetrexed Disodium Hydrate]

1: 2.79; 2: 84.2; 3: 52.5; 4: 39.1; 5: 94.3; 6: 91.2; 7: 80.7
